src = patent US20240043386A1

Catalogue of Emax (% Dual) values
molecular target: F508del/F508del CFTR (Homo sapiens, UniProt P13569, DEL508-508); construct: cells isolated from CF patients with the homozygous mutation; endogenous in cells; host or cells: primary human bronchial epithelial (hBE) cells from CF patients homozygous for F508del; assay: Trans-Epithelial Current Clamp (TECC) assay using primary human bronchial epithelial cells; type: cell-based; details: maximum percent activity relative to positive control (co-corrector 0.15 μM + potentiator 0.45 μM = 100%); primary hBE cells F508del/F508del
Sequence (P13569 with tags, fused parts or gaps DEL508-508): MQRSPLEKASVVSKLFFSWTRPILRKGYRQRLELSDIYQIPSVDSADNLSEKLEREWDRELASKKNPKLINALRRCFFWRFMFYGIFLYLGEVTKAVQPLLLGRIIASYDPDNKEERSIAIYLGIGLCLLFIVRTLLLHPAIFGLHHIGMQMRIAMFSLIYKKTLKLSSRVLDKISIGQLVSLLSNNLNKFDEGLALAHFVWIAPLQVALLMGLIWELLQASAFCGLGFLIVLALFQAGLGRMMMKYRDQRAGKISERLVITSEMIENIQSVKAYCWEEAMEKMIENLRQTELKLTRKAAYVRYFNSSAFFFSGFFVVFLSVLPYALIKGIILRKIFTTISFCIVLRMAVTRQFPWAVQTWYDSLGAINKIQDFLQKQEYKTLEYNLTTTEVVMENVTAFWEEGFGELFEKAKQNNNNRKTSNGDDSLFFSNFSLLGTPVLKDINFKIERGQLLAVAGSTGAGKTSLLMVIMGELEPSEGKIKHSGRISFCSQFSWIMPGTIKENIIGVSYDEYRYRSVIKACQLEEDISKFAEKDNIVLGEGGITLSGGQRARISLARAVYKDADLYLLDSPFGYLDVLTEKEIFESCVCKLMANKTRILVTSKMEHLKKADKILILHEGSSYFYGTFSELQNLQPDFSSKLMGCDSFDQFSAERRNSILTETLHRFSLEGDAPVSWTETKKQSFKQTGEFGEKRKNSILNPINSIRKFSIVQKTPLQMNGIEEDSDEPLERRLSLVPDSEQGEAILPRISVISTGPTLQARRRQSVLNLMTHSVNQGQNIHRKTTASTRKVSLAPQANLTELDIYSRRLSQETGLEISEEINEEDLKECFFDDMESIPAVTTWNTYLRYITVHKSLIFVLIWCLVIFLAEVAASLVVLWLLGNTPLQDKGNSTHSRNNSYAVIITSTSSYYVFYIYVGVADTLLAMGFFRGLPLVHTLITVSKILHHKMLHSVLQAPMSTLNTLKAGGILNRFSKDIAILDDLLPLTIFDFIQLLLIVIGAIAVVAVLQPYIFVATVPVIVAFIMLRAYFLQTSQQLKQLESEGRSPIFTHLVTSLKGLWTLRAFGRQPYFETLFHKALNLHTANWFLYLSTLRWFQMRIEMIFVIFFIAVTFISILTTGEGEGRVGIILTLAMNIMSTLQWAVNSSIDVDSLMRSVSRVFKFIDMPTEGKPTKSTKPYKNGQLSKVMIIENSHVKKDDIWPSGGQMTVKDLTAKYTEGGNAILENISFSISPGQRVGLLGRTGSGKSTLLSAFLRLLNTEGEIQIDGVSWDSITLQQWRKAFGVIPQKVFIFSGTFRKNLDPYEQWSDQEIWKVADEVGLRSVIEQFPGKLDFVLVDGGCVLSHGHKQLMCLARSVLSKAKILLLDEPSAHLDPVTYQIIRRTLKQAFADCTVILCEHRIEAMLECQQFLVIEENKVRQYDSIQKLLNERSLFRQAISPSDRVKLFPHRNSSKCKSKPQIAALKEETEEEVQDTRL
Value expressed in % Dual; do not type the unit.

Worked cases, Emax (% Dual) given:
>>> value_measured("COc1ccc([C@H]2C[C@@]2(C(=O)NS(=O)(=O)c2cccc3nc(C)ccc23)c2cc(C)ccc2OC)cn1 [Example 32]")
259
>>> value_measured("COc1cncc([C@@H]2C[C@]2(C(=O)NS(=O)(=O)c2cccc3nc(C)ccc23)c2cc(C)ccc2OC)n1 (single isomer, unassigned) [Example 74]")
222
>>> value_measured("COc1cncc([C@@H]2C[C@]2(C(=O)NS(=O)(=O)c2cccc3nc(C)ccc23)c2cc(C)ccc2OC)c1 (racemic) [Example 41]")
244
>>> value_measured("COc1cnc([C@H]2C[C@@]2(C(=O)NS(=O)(=O)c2cccc3nc(C)ccc23)c2cc(C)ccc2OC)c(OC)n1 [Example 82]")
210
>>> value_measured("COc1ccc(C)cc1[C@@]1(C(=O)NS(=O)(=O)c2cccc3nc(C)ccc23)C[C@H]1c1cccc(F)c1 (single isomer, unassigned) [Example 20]")
250
>>> value_measured("COc1ccc(C)cc1[C@]1(C(=O)NS(=O)(=O)c2cccc3nc(C)ccc23)C[C@@H]1c1cnc(C)c(F)c1 (single isomer, unassigned) [Example 100]")
207
>>> value_measured("COc1ccc(C)cc1[C@]1(C(=O)NS(=O)(=O)c2cccc3nc(C)ccc23)C[C@@H]1c1ccc(C)nc1C [Example 81]")
173
>>> value_measured("COc1ccc([C@@H]2C[C@]2(C(=O)NS(=O)(=O)c2cccc3nc(C)ccc23)c2cc(C)ccc2OC)cc1 (single isomer, unassigned) [Example 16]")
308
>>> value_measured("CCOc1ccc([C@@H]2C[C@]2(C(=O)NS(=O)(=O)c2cccc3nc(C)ccc23)c2cc(C)ccc2OC)cn1 [Example 59]")
161
>>> value_measured("COc1ncc([C@@H]2C[C@]2(C(=O)NS(=O)(=O)c2cccc3nc(C)ccc23)c2cc(C)ccc2OC)cn1 (single isomer, unassigned) [Example 37]")
152

Form field: Emax (% Dual) recorded for COc1ccc(C)cc1[C@]1(C(=O)NS(=O)(=O)c2cccc3nc(C)ccc23)C[C@@H]1c1ccccc1C(F)(F)F (racemic) [Example 29] with F508del/F508del CFTR (Homo sapiens, UniProt P13569, DEL508-508) (enter value)
241

Form field: Emax (% Dual) recorded for CCOc1nc(C2C[C@@]2(C(=O)NS(=O)(=O)c2cccc3nc(C)ccc23)c2cc(C)ccc2OC)ccc1F (stereo in doubt) [Example 106] with F508del/F508del CFTR (Homo sapiens, UniProt P13569, DEL508-508) (enter value)
188
